Origin of the recorded values: patent US20100179122A1

System Tested: mutant HIV reverse transcriptase (K103N mutation) (Human immunodeficiency virus type 1 group M subtype B, UniProt P04585, K690N)
Construct: mutations that occur in the reverse transcriptase segment of the pol gene; made in house
Assay Explanation: Analogous RT inhibition assay, K103N mutant
Assay type: biochemical
Method: 100 μL reaction mixtures were initiated with a combination of primer-template substrate (10 nM final concentration) and dNTPs (0.6 μM dNTPs, 0.75 μM [^3H]-dGTP). […] Microtiter plates were incubated an additional 10 minutes at 37° C. prior to quantification via Topcount (Packard). […]
IC50 by entry:

Compound	IC50
O=C(Nc1[nH]c2ccc(Cl)cc2c1S(=O)(=O)c1ccccc1)C1Cc2ccccc2O1 (stereo not shown)	< 1000 nM
O=C(NCCc1ccccn1)Nc1[nH]c2ccc(Br)cc2c1S(=O)(=O)N1CCCC1	1000 to 20000 nM
NC(=O)Nc1[nH]c2ccc(Br)cc2c1S(=O)(=O)N1CCCC1	< 1000 nM

We now examine a further compound.
Enquiry: Report IC50 for CC(=O)OCC(=O)Nc1[nH]c2ccc(Cl)cc2c1S(=O)(=O)c1ccccc1 please.
Return: < 1000 nM
